These entries and their values trace back to paper PMC7905942.

System: PC3 (prostate cancer) cells
Experiment: SRB cytotoxicity assay, PC3
Assay type: cell-based
Details: Homo sapiens, 48 h, read-out: Cytotoxicity IC50, PC3
Experimental readout: IC50 (µM)
Only the number, expressed in µM, is required.

Observe how each entry below is paired with its result.
Cc1ccc(Cn2cnc3ccc(/C=C/C(=O)NO)cc3c2=O)cc1 :: 1.27
O=C(/C=C/c1ccc2ncn(Cc3ccc(Cl)cc3)c(=O)c2c1)NO :: 1.37
CCCCn1cnc2cc(/C=C/C(=O)NO)ccc2c1=O [Compound 10e] :: 2.85

Please find the next molecule below.
IC50 for PC3 (prostate cancer) cells with input O=C(/C=C/c1ccc2c(=O)n(CC3CCCCC3)cnc2c1)NO [Compound 10g] equals 2.54
